SYSTEM: T1, MERS spike protein on recombinant CHO K1 cells (MERS-CoV, UniProt K9N5Q8 18-1353)
T1 sequence: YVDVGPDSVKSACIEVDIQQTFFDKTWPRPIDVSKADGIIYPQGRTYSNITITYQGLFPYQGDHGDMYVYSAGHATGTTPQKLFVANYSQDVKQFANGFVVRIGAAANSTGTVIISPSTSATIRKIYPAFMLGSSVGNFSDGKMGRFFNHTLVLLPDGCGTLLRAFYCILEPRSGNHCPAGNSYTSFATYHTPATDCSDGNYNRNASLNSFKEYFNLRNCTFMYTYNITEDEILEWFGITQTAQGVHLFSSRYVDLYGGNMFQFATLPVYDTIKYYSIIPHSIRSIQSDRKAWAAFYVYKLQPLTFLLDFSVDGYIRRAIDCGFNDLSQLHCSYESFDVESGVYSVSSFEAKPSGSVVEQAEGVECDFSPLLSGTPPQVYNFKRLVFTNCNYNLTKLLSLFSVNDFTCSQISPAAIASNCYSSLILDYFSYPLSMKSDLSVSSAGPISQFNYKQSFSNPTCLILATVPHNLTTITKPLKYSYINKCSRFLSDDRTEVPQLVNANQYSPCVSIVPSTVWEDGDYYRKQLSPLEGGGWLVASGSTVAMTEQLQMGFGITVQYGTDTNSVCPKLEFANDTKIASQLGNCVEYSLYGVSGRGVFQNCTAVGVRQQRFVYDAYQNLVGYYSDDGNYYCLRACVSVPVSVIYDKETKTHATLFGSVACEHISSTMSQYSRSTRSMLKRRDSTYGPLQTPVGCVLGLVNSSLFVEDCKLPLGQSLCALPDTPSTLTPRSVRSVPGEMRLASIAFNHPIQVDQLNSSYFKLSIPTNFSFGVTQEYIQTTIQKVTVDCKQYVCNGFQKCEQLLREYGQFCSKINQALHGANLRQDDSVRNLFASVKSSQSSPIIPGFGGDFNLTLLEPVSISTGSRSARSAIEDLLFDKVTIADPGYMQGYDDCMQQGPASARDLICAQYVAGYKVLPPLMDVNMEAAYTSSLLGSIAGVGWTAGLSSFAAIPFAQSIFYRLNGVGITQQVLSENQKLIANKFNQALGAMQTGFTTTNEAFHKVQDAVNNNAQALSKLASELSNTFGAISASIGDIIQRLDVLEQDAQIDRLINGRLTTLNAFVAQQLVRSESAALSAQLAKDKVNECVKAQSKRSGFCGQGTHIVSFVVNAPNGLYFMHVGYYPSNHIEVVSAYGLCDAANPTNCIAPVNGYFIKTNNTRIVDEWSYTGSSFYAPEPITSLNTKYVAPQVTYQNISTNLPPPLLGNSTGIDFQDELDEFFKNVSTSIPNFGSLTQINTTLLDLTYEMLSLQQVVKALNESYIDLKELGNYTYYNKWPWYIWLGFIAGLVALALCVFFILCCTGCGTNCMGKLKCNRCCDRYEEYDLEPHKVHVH
PROTOCOL_SUMMARY: FACS on CHO K1 cells

>  <BINDER>
20D11 VHH-Fc (Fc fusion) QVQLVESGGGLVQAGGSLRLSCAASGRTSSIYSVGWFRQAPGKERELVAGITWSGGTTYYSDSVKGRFTISRDNAKNTVNLQMNNLKPEDTAIYYCAVDRYSMTMSARDYDYWGQGTQVTVSS

>  <binding result>
no binding

$$$$
>  <BINDER>
16H7 VHH-Fc (Fc fusion) QVQLVESGGGLVQAGGSLRLSCAASGRAFSKDTMGWFRQAPGKEREFVAVISASGDSTYYADFVKGRFTISRDNAKNTEYLQMNSLKPEDTAVYHCAADGARAYYSINAHRYSWAYNYWGQGTQVTVSS

>  <binding result>
no binding

$$$$

Where these numbers come from: patent US20250382355A1
